Values from ChEMBL document CHEMBL1149485

# system_name: P2Y purinoceptor 4 (Homo sapiens)
# Sequence (P51582 whole entry): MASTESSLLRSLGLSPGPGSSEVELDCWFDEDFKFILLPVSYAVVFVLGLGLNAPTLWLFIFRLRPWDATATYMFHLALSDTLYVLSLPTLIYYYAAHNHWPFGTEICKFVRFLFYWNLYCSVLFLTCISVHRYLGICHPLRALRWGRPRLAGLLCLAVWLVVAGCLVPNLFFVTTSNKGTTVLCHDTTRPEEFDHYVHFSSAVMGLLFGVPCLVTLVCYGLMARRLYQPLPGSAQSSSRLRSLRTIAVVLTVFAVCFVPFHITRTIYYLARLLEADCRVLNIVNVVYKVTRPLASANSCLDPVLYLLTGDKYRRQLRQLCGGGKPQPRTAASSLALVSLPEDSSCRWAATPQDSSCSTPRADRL
# protocol: Agonist activity at human recombinant P2Y4 receptor expressed in 1321N1 cells assessed as PLC-mediated [3H]IP production relative to UTP
# Type: functional, cell-based
quantity_name: Ratio EC50

Before answering, review these 5 worked examples.
Look up Ratio EC50 for this compound: O=c1ccn([C@@H]2C3C[C@@]3(COP(=O)(O)OP(=O)(O)O)[C@@H](O)[C@H]2O)c(=O)[nH]1 (stereo not given in full)
1.7

For the compound `O=c1ccn([C@@H]2O[C@H](COP(=O)(O)OP(=O)(O)O)[C@@H](O)[C@@H]2F)c(=O)[nH]1` , what Ratio EC50 is on record?
7.1

Give its Ratio EC50 value. Item: `Cn1c(=O)ccn([C@@H]2O[C@H](COP(=O)(O)OP(=O)(O)O)[C@@H](O)[C@H]2O)c1=O`
47

Value lookup for Ratio EC50; key = `O=c1[nH]c(=S)ccn1[C@@H]1O[C@H](COP(=O)(O)OP(=O)(O)O)[C@@H](O)[C@H]1O`
0.32

Field request: Ratio EC50 | item: `O=c1[nH]c(=O)n([C@@H]2O[C@H](COP(=O)(O)OP(=O)(O)O)[C@@H](O)[C@H]2O)cc1I`
55

A = N[C@@H]1[C@H](O)[C@@H](COP(=O)(O)OP(=O)(O)O)O[C@H]1n1ccc(=O)[nH]c1=O
B = O=c1ccn([C@@H]2O[C@H](COP(=O)(O)OP(=O)(O)O)C[C@H]2O)c(=O)[nH]1
Return label of the item with the larger Ratio EC50. Candidates: A , B . # respond with the chosen item's label
B
(B: 42, A: 16)

1 = Nc1nc2c(ncn2[C@@H]2O[C@H](COP(=O)(O)OP(=O)(O)O)[C@@H](O)[C@H]2O)c(=O)[nH]1
2 = O=c1ccn([C@@H]2O[C@H](COP(=O)(O)OP(=O)(O)O)[C@@H](O)[C@H]2O)c(=S)[nH]1
Which one would you say has the larger Ratio EC50 value: 1 , or 2 ? Returns: label corresponding to the selected item.
1

----------
# system_name: UniProt:Q15077
# Sequence (Q15077 whole entry): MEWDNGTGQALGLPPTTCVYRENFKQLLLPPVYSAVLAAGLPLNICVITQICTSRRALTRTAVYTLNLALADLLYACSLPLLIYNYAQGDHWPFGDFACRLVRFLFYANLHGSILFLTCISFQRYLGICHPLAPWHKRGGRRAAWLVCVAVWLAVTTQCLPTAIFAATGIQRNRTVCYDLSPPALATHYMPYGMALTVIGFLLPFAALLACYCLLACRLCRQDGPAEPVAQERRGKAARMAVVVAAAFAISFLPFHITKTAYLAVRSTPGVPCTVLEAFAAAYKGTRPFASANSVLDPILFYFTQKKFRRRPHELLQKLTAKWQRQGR
# protocol: Agonist activity at human recombinant P2Y6 receptor expressed in 1321N1 cells assessed as PLC-mediated [3H]IP production
pEC50: −log10 of the molar value.
quantity_name: pEC50

The following compounds have reported results that may help.
// map `O=c1ccn([C@@H]2O[C@H](COP(=O)(O)OP(=O)(O)O)[C@@H](O)[C@H]2O)c(=S)[nH]1` to recorded pEC50 (system: UniProt:Q15077)
7.22

For UniProt:Q15077, provide pEC50 of `O=c1ccn([C@@H]2O[C@@]3(COP(=O)(O)OP(=O)(O)O)C[C@H]3[C@H]2O)c(=O)[nH]1` please.
5.46

# value lookup — system UniProt:Q15077, readout pEC50, item O=c1ccn([C@@H]2O[C@H](COP(=O)(O)OP(=O)(O)O)[C@@H](O)[C@H]2O)c(=O)[nH]1 [URIDINE_DIPHOSPHATE]
7.89

1 = O=c1ccn([C@]23CC2[C@H](COP(=O)(O)OP(=O)(O)O)[C@@H](O)C3)c(=O)[nH]1 (some centres not stated)
2 = Nc1nc2c(ncn2[C@@H]2O[C@H](COP(=O)(O)OP(=O)(O)O)[C@@H](O)[C@H]2O)c(=O)[nH]1
3 = O=c1ccn([C@@H]2O[C@H](COP(=O)(O)OP(=O)(O)OC[C@H]3O[C@@H](n4ccc(=O)[nH]c4=O)[C@H](O)[C@@H]3O)[C@@H](O)[C@H]2O)c(=O)[nH]1
4 = O=C(O)CCCSc1ccn([C@@H]2O[C@H](COP(=O)(O)OP(=O)(O)O)[C@@H](O)[C@H]2O)c(=O)n1
Rank ascending by pEC50. Respond with the label ranking, as requested.
2, 4, 3, 1
(2: 4.35, 4: 5.06, 3: 5.64, 1: 6.64)
